System: Staphylococcus aureus
assay: Antibacterial activity against Staphylococcus aureus Smith by two-fold agar dilution method
Type: functional
Measured MIC, listed per entry.
observable: MIC (µg/mL)

1) C/C(=N\Nc1ccccc1)C1=C(O)[C@H](N)[C@@H]2Cc3c(c(O)c4c(O)c(C)ccc4c3C)C(=O)[C@]2(O)C1=O.Cl : 6.2
2) C/C(=N\c1ccc(CC(=O)O)cc1)C1=C(O)[C@H](N)[C@@H]2Cc3c(c(O)c4c(O)c(C)ccc4c3C)C(=O)[C@]2(O)C1=O.Cl : 6.2
3) COc1ccc(/N=C(\C)C2=C(O)[C@H](N)[C@@H]3Cc4c(c(O)c5c(O)c(C)ccc5c4C)C(=O)[C@]3(O)C2=O)cc1.Cl : 12.5
4) C/C(=N\c1ccc(Br)cc1)C1=C(O)[C@H](N)[C@@H]2Cc3c(c(O)c4c(O)c(C)ccc4c3C)C(=O)[C@]2(O)C1=O.Cl : 12.5
5) C/C(=N\N1CCOCC1)C1=C(O)[C@H](N)[C@@H]2Cc3c(c(O)c4c(O)c(C)ccc4c3C)C(=O)[C@]2(O)C1=O.Cl : 12.5

---

System: Proteus mirabilis
assay: Antibacterial activity against Proteus mirabilis infected in po dosed mouse assessed as protection against bacterial infection
Type: functional
Each entry below lists one item and its recorded CD50 value.
observable: CD50 (mg/kg)

1) C/C(=N\N1CCN(C)CC1)C1=C(O)[C@H](N)[C@@H]2Cc3c(c(O)c4c(O)c(C)ccc4c3C)C(=O)[C@]2(O)C1=O.Cl : 25
2) CC(=O)C1=C(O)[C@H](N)[C@@H]2Cc3c(c(O)c4c(O)c(C)ccc4c3C)C(=O)[C@]2(O)C1=O.Cl [CETOCYCLINE HYDROCHLORIDE] : 200
3) CC(=O)NS(=O)(=O)c1ccc(/N=C(\C)C2=C(O)[C@H](N)[C@@H]3Cc4c(c(O)c5c(O)c(C)ccc5c4C)C(=O)[C@]3(O)C2=O)cc1.Cl : 100
4) C/C(=N\N1CCN(CCO)CC1)C1=C(O)[C@H](N)[C@@H]2Cc3c(c(O)c4c(O)c(C)ccc4c3C)C(=O)[C@]2(O)C1=O.Cl : 100
5) C/C(=N\NC(=N)N)C1=C(O)[C@H](N)[C@@H]2Cc3c(c(O)c4c(O)c(C)ccc4c3C)C(=O)[C@]2(O)C1=O.Cl : 100
6) CC(=O)N/N=C(\C)C1=C(O)[C@H](N)[C@@H]2Cc3c(c(O)c4c(O)c(C)ccc4c3C)C(=O)[C@]2(O)C1=O.Cl : 50

---

Test system: Staphylococcus aureus
assay: Antibacterial activity against Staphylococcus aureus Smith by two-fold agar dilution method
Assay type: functional
MIC listing for selected molecules.
observable: MIC

1. CC(=O)N/N=C(\C)C1=C(O)[C@H](N)[C@@H]2Cc3c(c(O)c4c(O)c(C)ccc4c3C)C(=O)[C@]2(O)C1=O.Cl : 12.5 µg/mL
2. CNC(=O)N/N=C(\C)C1=C(O)[C@H](N)[C@@H]2Cc3c(c(O)c4c(O)c(C)ccc4c3C)C(=O)[C@]2(O)C1=O.Cl : 25 µg/mL
3. C/C(=N\NC(=O)c1ccccc1O)C1=C(O)[C@H](N)[C@@H]2Cc3c(c(O)c4c(O)c(C)ccc4c3C)C(=O)[C@]2(O)C1=O.Cl : > 100 µg/mL
4. COc1ccc(C(=O)N/N=C(\C)C2=C(O)[C@H](N)[C@@H]3Cc4c(c(O)c5c(O)c(C)ccc5c4C)C(=O)[C@]3(O)C2=O)cc1.Cl (stereo in doubt) : 100 µg/mL
5. C/C(=N\c1ccc(Cl)cc1)C1=C(O)[C@H](N)[C@@H]2Cc3c(c(O)c4c(O)c(C)ccc4c3C)C(=O)[C@]2(O)C1=O.Cl : 6.2 µg/mL
6. C/C(=N\N1CCN(C)CC1)C1=C(O)[C@H](N)[C@@H]2Cc3c(c(O)c4c(O)c(C)ccc4c3C)C(=O)[C@]2(O)C1=O.Cl : 6.2 µg/mL
7. C/C(=N\NC(=O)c1ccc(O)cc1)C1=C(O)[C@H](N)[C@@H]2Cc3c(c(O)c4c(O)c(C)ccc4c3C)C(=O)[C@]2(O)C1=O.Cl (stereo in doubt) : 50 µg/mL
8. C/C(=N\NC(=O)c1ccco1)C1=C(O)[C@H](N)[C@@H]2Cc3c(c(O)c4c(O)c(C)ccc4c3C)C(=O)[C@]2(O)C1=O.Cl (stereo in doubt) : > 100 µg/mL
9. C/C(=N\c1ccc(C)cc1)C1=C(O)[C@H](N)[C@@H]2Cc3c(c(O)c4c(O)c(C)ccc4c3C)C(=O)[C@]2(O)C1=O.Cl : 12.5 µg/mL
10. C/C(=N\NC(=O)c1ccc(N)cc1)C1=C(O)[C@H](N)[C@@H]2Cc3c(c(O)c4c(O)c(C)ccc4c3C)C(=O)[C@]2(O)C1=O.Cl (stereo in doubt) : 50 µg/mL
11. CCCC(=O)N/N=C(\C)C1=C(O)[C@H](N)[C@@H]2Cc3c(c(O)c4c(O)c(C)ccc4c3C)C(=O)[C@]2(O)C1=O.Cl : 50 µg/mL
12. C/C(=N\NC(=O)CC#N)C1=C(O)[C@H](N)[C@@H]2Cc3c(c(O)c4c(O)c(C)ccc4c3C)C(=O)[C@]2(O)C1=O.Cl : 50 µg/mL
13. CCCNC(=O)N/N=C(\C)C1=C(O)[C@H](N)[C@@H]2Cc3c(c(O)c4c(O)c(C)ccc4c3C)C(=O)[C@]2(O)C1=O.Cl : 25 µg/mL
14. CC(=O)C1=C(O)[C@H](N)[C@@H]2Cc3c(c(O)c4c(O)c(C)ccc4c3C)C(=O)[C@]2(O)C1=O.Cl [CETOCYCLINE HYDROCHLORIDE] : 3.1 µg/mL

---

Each entry below carries its recorded MIC.
Tested on: Proteus mirabilis
assay: Antibacterial activity against Proteus mirabilis by two-fold agar dilution method
Assay type: functional
observable: MIC

1) C/C(=N\c1ccc(O)cc1)C1=C(O)[C@H](N)[C@@H]2Cc3c(c(O)c4c(O)c(C)ccc4c3C)C(=O)[C@]2(O)C1=O.Cl : 6.2 µg/mL
2) C/C(=N\c1ccc(Br)cc1)C1=C(O)[C@H](N)[C@@H]2Cc3c(c(O)c4c(O)c(C)ccc4c3C)C(=O)[C@]2(O)C1=O.Cl : 6.2 µg/mL
3) COc1ccc(C(=O)N/N=C(\C)C2=C(O)[C@H](N)[C@@H]3Cc4c(c(O)c5c(O)c(C)ccc5c4C)C(=O)[C@]3(O)C2=O)cc1.Cl (stereo in doubt) : 25 µg/mL
4) C/C(=N\NCCN(C)C)C1=C(O)[C@H](N)[C@@H]2Cc3c(c(O)c4c(O)c(C)ccc4c3C)C(=O)[C@]2(O)C1=O.Cl : 25 µg/mL
5) C/C(=N\c1ccc(S(N)(=O)=O)cc1)C1=C(O)[C@H](N)[C@@H]2Cc3c(c(O)c4c(O)c(C)ccc4c3C)C(=O)[C@]2(O)C1=O.Cl : 3.1 µg/mL
6) CNC(=O)N/N=C(\C)C1=C(O)[C@H](N)[C@@H]2Cc3c(c(O)c4c(O)c(C)ccc4c3C)C(=O)[C@]2(O)C1=O.Cl : 50 µg/mL
7) C/C(=N\NC(=O)Cc1ccccc1)C1=C(O)[C@H](N)[C@@H]2Cc3c(c(O)c4c(O)c(C)ccc4c3C)C(=O)[C@]2(O)C1=O.Cl : 12.5 µg/mL
8) C/C(=N\NC(N)=O)C1=C(O)[C@H](N)[C@@H]2Cc3c(c(O)c4c(O)c(C)ccc4c3C)C(=O)[C@]2(O)C1=O.Cl : 25 µg/mL
9) C/C(=N\N1CCN(C)CC1)C1=C(O)[C@H](N)[C@@H]2Cc3c(c(O)c4c(O)c(C)ccc4c3C)C(=O)[C@]2(O)C1=O.Cl : 6.2 µg/mL
10) COc1ccc(/N=C(\C)C2=C(O)[C@H](N)[C@@H]3Cc4c(c(O)c5c(O)c(C)ccc5c4C)C(=O)[C@]3(O)C2=O)cc1.Cl : 6.2 µg/mL
11) C/C(=N\c1ccc(CC(=O)O)cc1)C1=C(O)[C@H](N)[C@@H]2Cc3c(c(O)c4c(O)c(C)ccc4c3C)C(=O)[C@]2(O)C1=O.Cl : 3.1 µg/mL
12) C/C(=N\N1CCOC1=O)C1=C(O)[C@H](N)[C@@H]2Cc3c(c(O)c4c(O)c(C)ccc4c3C)C(=O)[C@]2(O)C1=O.Cl : 12.5 µg/mL
13) C/C(=N\c1ccc(F)cc1)C1=C(O)[C@H](N)[C@@H]2Cc3c(c(O)c4c(O)c(C)ccc4c3C)C(=O)[C@]2(O)C1=O.Cl : 3.1 µg/mL
14) C/C(=N\N1CCOCC1)C1=C(O)[C@H](N)[C@@H]2Cc3c(c(O)c4c(O)c(C)ccc4c3C)C(=O)[C@]2(O)C1=O.Cl : 12.5 µg/mL
15) C/C(=N\Nc1ccccc1)C1=C(O)[C@H](N)[C@@H]2Cc3c(c(O)c4c(O)c(C)ccc4c3C)C(=O)[C@]2(O)C1=O.Cl : 50 µg/mL
16) C/C(=N\N1CCN(CCO)CC1)C1=C(O)[C@H](N)[C@@H]2Cc3c(c(O)c4c(O)c(C)ccc4c3C)C(=O)[C@]2(O)C1=O.Cl : 3.1 µg/mL
17) C/C(=N\NC(=O)c1ccco1)C1=C(O)[C@H](N)[C@@H]2Cc3c(c(O)c4c(O)c(C)ccc4c3C)C(=O)[C@]2(O)C1=O.Cl (stereo in doubt) : 50 µg/mL
18) CC(=O)NS(=O)(=O)c1ccc(/N=C(\C)C2=C(O)[C@H](N)[C@@H]3Cc4c(c(O)c5c(O)c(C)ccc5c4C)C(=O)[C@]3(O)C2=O)cc1.Cl : 6.2 µg/mL
19) CC(=O)C1=C(O)[C@H](N)[C@@H]2Cc3c(c(O)c4c(O)c(C)ccc4c3C)C(=O)[C@]2(O)C1=O.Cl [CETOCYCLINE HYDROCHLORIDE] : 1.56 µg/mL
20) C/C(=N\NC(=O)CC#N)C1=C(O)[C@H](N)[C@@H]2Cc3c(c(O)c4c(O)c(C)ccc4c3C)C(=O)[C@]2(O)C1=O.Cl : 12.5 µg/mL
21) CC(=O)N/N=C(\C)C1=C(O)[C@H](N)[C@@H]2Cc3c(c(O)c4c(O)c(C)ccc4c3C)C(=O)[C@]2(O)C1=O.Cl : 6.2 µg/mL
22) C=CCNC(=O)N/N=C(\C)C1=C(O)[C@H](N)[C@@H]2Cc3c(c(O)c4c(O)c(C)ccc4c3C)C(=O)[C@]2(O)C1=O.Cl : 6.2 µg/mL
23) C/C(=N\NC(N)=S)C1=C(O)[C@H](N)[C@@H]2Cc3c(c(O)c4c(O)c(C)ccc4c3C)C(=O)[C@]2(O)C1=O.Cl : 50 µg/mL
24) C/C(=N\c1ccc(C(=O)O)cc1)C1=C(O)[C@H](N)[C@@H]2Cc3c(c(O)c4c(O)c(C)ccc4c3C)C(=O)[C@]2(O)C1=O.Cl : 3.1 µg/mL
